EXPERIMENTAL_TARGET: ZFP SBS#1006 (synthetic)
Sequence (chain, as listed by the source): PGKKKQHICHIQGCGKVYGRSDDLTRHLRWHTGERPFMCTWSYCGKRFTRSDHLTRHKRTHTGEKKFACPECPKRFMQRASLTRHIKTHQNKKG
ASSAY_TEXT: EMSA
ASSAY_CONTEXT: tags: MBP fusion
pKd: −log10 of the molar value.
PROPERTY_LABEL: pKd

[[record]]
binder = "GTAGGGGCG (dsDNA) DNA 1: GTAGGGGCG DNA 2: CGCCCCTAC"
assay_value = 9.05

